- assay.overview: Cytotoxicity MTS assay on normal fibroblasts
- Assay type: cell-based, human
- experimental.context: human, normal human dermal fibroblasts (NHDF), 0.05 mM, read-out: cell viability
- Description: Cell culture: NHDF, HeLa, HOS, HepG2, MCF7, MeWo and CT-26 cells were cultivated in complete Eagle’s Minimal Essential Medium alpha (aMEM) containing a 1% Penicillin–Streptomycin–Amphotericin B mixture and a 10% fetal bovine serum under 5% CO2 humidified atmosphere at 37 °C. LN-229 cells were cultivated in DMEM with a 1% Penicillin–Streptomycin–Amphotericin B mixture and a 5% fetal bovine serum. […]
measured.property: viability at 48 h, 0.05 mM
Give the number first and the unit second.

Enquiry: Which viability at 48 h, 0.05 mM reading was recorded for the compound COCCOCCOCCN1c2ccccc2Sc2cc(C=O)ccc21 [PTF] ?
Return: 86%

* * *

- System: breast cancer (MCF7) cells
- assay.overview: Cytotoxicity MTS assay on MCF-7
- Type: cell-based, human
- experimental.context: Homo sapiens, MCF7; MCF-7, 48 h, MTS; tested 0.01-0.3 mM; read-out: Half maximal inhibition concentration (IC50)
measured.property: IC50

Take a look at these entries with their results.
* COCCOCCOCCN1c2ccccc2Sc2cc(/C=N/CCc3ccc(S(N)(=O)=O)cc3)ccc21 [PTEA] | 138 µM
* COCCOCCOCCN1c2ccccc2Sc2cc(/C=N/Cc3ccc(S(N)(=O)=O)cc3)ccc21 [PTMA] | 141 µM
* c1ccc2c(c1)Nc1ccccc1S2 [PTZ, phenothiazine] | 188 µM

Now let's try a different one.
Enquiry: Which IC50 reading was recorded for the compound COCCOCCOCCN1c2ccccc2Sc2cc(C=O)ccc21 [PTF] ?
Return: 108 µM

* * *

- Tested on: liver cancer (HepG2) cells
- assay.overview: Cytotoxicity MTS assay on HepG2
- Assay type: cell-based, human
- experimental.context: Homo sapiens; HepG2, 48 h, MTS; read-out: IC50
measured.property: IC50 (µM)
Give a bare numeral; the unit µM is implied.

Enquiry: Which IC50 reading was recorded for the compound COCCOCCOCCN1c2ccccc2Sc2cc(C=O)ccc21 [PTF] ?
Return: 52
